The origin of these recorded values is ChEMBL document CHEMBL1121913.

ASSAY SYSTEM: Alcohol dehydrogenase (Homo sapiens) (UniProt P07327+P08319+P00325+P00326+P40394+P11766+P28332)
ASSAY DETAILS: The compound was tested for the ability to inactivate human liver alcohol dehydrogenase in the absence of NAD+K
Outcome: yes (1) for Rate constant of at least 0.8 M⁻¹ s⁻¹; no (0) for anything lower.

Exercise: Determine whether this molecule has Rate constant no lower than 0.8 M⁻¹ s⁻¹: O=C(O)CBr
Key: no (0)

Exercise: Record O=C(CBr)Nc1ccc(Oc2ccc(C(=O)O)cc2)cc1 ; criterion: Rate constant no lower than 0.8 M⁻¹ s⁻¹. Met?
Key: no (0)

Exercise: Please tell me: is the molecule O=C(CBr)Nc1ccc(-c2ccc(C(=O)O)cc2)cc1 at or over 0.8 M⁻¹ s⁻¹ in terms of Rate constant?
Key: yes (1)

Exercise: Quick check: does O=C(O)CCCCCCCCNC(=O)CBr have Rate constant greater than or equal to 0.8 M⁻¹ s⁻¹?
Key: no (0)

Exercise: Can O=C(O)CCCCCCCNC(=O)CBr be said to have Rate constant at or above 0.8 M⁻¹ s⁻¹?
Key: no (0)

Exercise: I'd appreciate it if you could say whether O=C(O)CCCCCCCCCCCNC(=O)CBr has Rate constant at least equal to 0.8 M⁻¹ s⁻¹.
Key: yes (1)

Exercise: Please check the record O=C(O)CCCCCCNC(=O)CBr and state if its Rate constant is at or above 0.8 M⁻¹ s⁻¹.
Key: no (0)

Exercise: Has O=C(O)CCCCCCCCCCNC(=O)CBr a recorded Rate constant greater than or equal to 0.8 M⁻¹ s⁻¹?
Key: yes (1)

Exercise: Tell me whether Rate constant is at least 0.8 M⁻¹ s⁻¹ here: NC(=O)CCCc1ccc(NC(=O)CBr)cc1
Key: no (0)

###

ASSAY SYSTEM: Alcohol dehydrogenase (Homo sapiens) (UniProt P07327+P08319+P00325+P00326+P40394+P11766+P28332)
ASSAY DETAILS: The compound was tested for the ability to inactivate human liver alcohol dehydrogenase in the presence of 1 mM NAD+k
Hi there, I'd appreciate the recorded log10 Rate constant for every entry that follows.
All values: log10 Rate constant [M⁻¹ min⁻¹].

Exercise: Need log10 Rate constant of O=C(O)CCCCCCCCCCCNC(=O)CBr , thanks.
Key: 2.51

Exercise: I have this molecule here, NC(=O)CBr , and I need its recorded log10 Rate constant.
Key: 0.46

Exercise: I have this molecule here, O=C(CBr)Nc1ccc(-c2ccc(C(=O)O)cc2)cc1 , and I need its recorded log10 Rate constant.
Key: 3.54

Exercise: # input molecule: O=C(CBr)Nc1ccc(Oc2ccc(C(=O)O)cc2)cc1 ; wanted: its log10 Rate constant
Key: 2.46

Exercise: Sample O=C(O)CCCCCCNC(=O)CBr — what was its log10 Rate constant?
Key: 0.92

Exercise: Request the reported log10 Rate constant associated with O=C(O)CCCCCCCNC(=O)CBr
Key: 1.70

Exercise: Field request: log10 Rate constant | item: O=C(O)CCCCCCCCNC(=O)CBr
Key: 2.38

Exercise: Which log10 Rate constant value belongs to O=C(O)CCCCCCCCCCNC(=O)CBr ?
Key: 3.15

###

Provide the recorded Rate constant for the entries that follow.
ASSAY DETAILS: The compound was tested for the ability to inactivate mouse liver alcohol dehydrogenase in the absence of NAD+K
Field: numeric (M⁻¹ s⁻¹). Do not append units.

Exercise: Given the molecule O=C(O)CCCCCCNC(=O)CBr , what is its reported Rate constant?
Key: 0.127

Exercise: Which Rate constant is reported for this molecule? O=C(O)CCCCCCCCNC(=O)CBr
Key: 0.0817

Exercise: Value lookup for Rate constant; key = NC(=O)CBr
Key: 0.147

Exercise: // query Rate constant value for entry O=C(O)CCCCCCCCCCCNC(=O)CBr
Key: 0.717

Exercise: I have this molecule here, O=C(O)CCCCCCCCCCNC(=O)CBr , and I need its recorded Rate constant.
Key: 0.147

Exercise: Data request, read-out Rate constant, for O=C(O)CCCc1ccc(NC(=O)CBr)cc1
Key: 0.633

Exercise: Name the reported Rate constant value associated with the molecule NC(=O)CCCc1ccc(NC(=O)CBr)cc1
Key: 0.6

Exercise: Look at this molecule and give its reported Rate constant. O=C(CBr)Nc1ccc(Oc2ccc(C(=O)O)cc2)cc1
Key: 2.88
